Reference source: patent US20170112792A1

- MEASURED_ON: UniProt:Q13526
- METHOD: chymotrypsin coupled PPlase activity assay, Pin1
- Type: biochemical
- CONDITION_LABEL: Cheng-Prusoff equation; read-out: Ki from PPlase assay
pKi: −log10 of the molar value.
Quick reference for pKi among some compounds

{"STRUCTURE_SMILES_STRING": "CC1=C(/C=C/C(C)=C/C=C/C(C)=C\\C(=O)O)C(C)(C)CCC1", "MEASURED_ON": "UniProt:Q13526", "pKi": 5.63}
{"STRUCTURE_SMILES_STRING": "CC1=C(/C=C/C(C)=C/C=C/C(C)=C/C(=O)O)C(C)(C)CCC1", "MEASURED_ON": "UniProt:Q13526", "pKi": 6.09}

---

- MEASURED_ON: GST-Pin1 (Homo sapiens)
- Sequence (Q13526 whole entry): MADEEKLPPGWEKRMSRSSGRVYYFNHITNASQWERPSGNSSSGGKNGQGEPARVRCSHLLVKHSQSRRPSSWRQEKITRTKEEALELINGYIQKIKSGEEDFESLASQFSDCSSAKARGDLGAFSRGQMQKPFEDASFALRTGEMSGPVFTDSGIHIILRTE
- METHOD: fluorescence polarization (FP) pTide competition assay / FP-HTS
REPORTED_METRIC: Pin1 binding in FP assay

{"COMPOUND": "COc1cc(C)c(/C=C/C(C)=C/C=C/C(C)=C/C(=O)O)c(C)c1C [acitretin]", "REPORTED_METRIC": "Pin1 binding in FP assay", "RECORDED_RESULT": "moderate binding"}
{"COMPOUND": "CC1=C(/C=C/C(C)=C/C=C/C(C)=C/CO)C(C)(C)CCC1 [retinol]", "REPORTED_METRIC": "Pin1 binding in FP assay", "RECORDED_RESULT": "totally inactive"}
{"COMPOUND": "CC(=O)OC/C=C(C)/C=C/C=C(C)/C=C/C1=C(C)CCCC1(C)C [retinyl acetate]", "REPORTED_METRIC": "Pin1 binding in FP assay", "RECORDED_RESULT": "totally inactive"}
{"COMPOUND": "CC1(C)CCC(C)(C)c2cc(NC(=O)c3ccc(C(=O)O)cc3)ccc21 [tamibarotene]", "REPORTED_METRIC": "Pin1 binding in FP assay", "RECORDED_RESULT": "moderate binding"}
{"COMPOUND": "CC1=C(/C=C/C(C)=C/C=C/C(C)=C/C=O)C(C)(C)CCC1 [retinal]", "REPORTED_METRIC": "Pin1 binding in FP assay", "RECORDED_RESULT": "totally inactive"}

---

- MEASURED_ON: GST-Pin1 (Homo sapiens)
- METHOD: fluorescence polarization (FP) pTide competition assay / FP-HTS
REPORTED_METRIC: Ki

{"COMPOUND": "CC1=C(/C=C/C(C)=C/C=C/C(C)=C\\C(=O)O)C(C)(C)CCC1 [13cRA]", "REPORTED_METRIC": "Ki", "RECORDED_RESULT": "1.16 µM"}
